Experiment: Partition coefficient (logP) (HPLC)
Type: physicochemical
Conditions: octanol/water
Readout: logP

In the examples that follow, each entry is paired with its recorded logP.
CCCCN1C(=O)C2OC3(C)C=C(C)C=NC3C2C1=O (stereo not drawn)	1.3
CC1=CC2(C)OC3C(=O)N(Cc4ccccc4)C(=O)C3C2N=C1 (stereo not drawn)	1.51
CC1=CC2(C)OC3C(=O)N(C4CC4)C(=O)C3C2N=C1 (stereo not drawn)	0.5

a = CCN1C(=O)[C@H]2[C@@H](O[C@]3(C)C=C(C)C=N[C@@H]23)C1=O
b = CC1=CC2(C)OC3C(=O)N([C@@H](C)c4ccccc4)C(=O)C3C2N=C1 (stereo partly drawn)
Q) Hi there! Just curious which has the higher logP between a and b . Identify your pick by its label.
A) b
(b: 1.7, a: 0.46)

====

Experiment: Partition coefficient (logP) (HPLC)
Format: physicochemical
Conditions: octanol/water
Readout: logP

CCN1C(=O)[C@@H]2[C@H](O[C@@]3(C)C=C(C)C=N[C@H]23)C1=O	0.46
CCN1C(=O)C2OC3(C)C=C(C)C=NC3C2C1=O (stereo not drawn)	0.46

# credit: ChEMBL document CHEMBL1141926
